Source: patent US9951065B2

- measured.on: IDO1 (Homo sapiens)
- Construct: HeLa cells were treated with a test compound in the presence of IFNγ, which induces IDO1 expression; host or cells: H1-HeLa cells, IDO1 induced with IFNγ
- Sequence (P14902 whole entry): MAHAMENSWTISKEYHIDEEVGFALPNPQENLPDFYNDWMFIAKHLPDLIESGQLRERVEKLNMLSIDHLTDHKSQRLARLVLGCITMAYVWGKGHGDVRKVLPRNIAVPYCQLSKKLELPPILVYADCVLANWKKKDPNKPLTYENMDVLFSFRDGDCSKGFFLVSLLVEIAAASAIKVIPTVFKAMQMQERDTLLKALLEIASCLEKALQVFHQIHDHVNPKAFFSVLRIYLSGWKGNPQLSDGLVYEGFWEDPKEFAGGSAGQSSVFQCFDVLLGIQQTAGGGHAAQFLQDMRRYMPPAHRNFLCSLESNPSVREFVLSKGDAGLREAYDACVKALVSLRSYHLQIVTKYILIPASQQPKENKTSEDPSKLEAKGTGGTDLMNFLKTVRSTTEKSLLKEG
- procedure.summary: Cell-based (HeLa) assay for measurement of IDO1 inhibition (kynurenine levels in supernatant after IFNγ induction)
- test.conditions: HeLa cells, IFNγ-induced IDO1, kynurenine in supernatant after 48 hour incubation; geometric mean of a minimum of four determinations
assay.readout: EC50 (nM)

>>> print(df.to_string())
                                    molecule  assay_readout  comparator  experimental_result
 0  CNCc1nc2c(/C(=N/O)Nc3ccc(F)c(Cl)c3)cc(F)c(F)c2[nH]1 [Example 48]           EC50           =                  434
 1  O=S(=O)(CCNc1nc2nccc(/C(=N/O)Nc3ccc(F)c(Cl)c3)c2[nH]1)N1CCOCC1 [Example 236]           EC50           =                 4770
 2  NCCc1nc2nccc(/C(=N/O)Nc3ccc(F)c(Cl)c3)c2[nH]1 [Example 189]           EC50           =                 1780
 3  O/N=C(\Nc1ccc(F)c(Cl)c1)c1ccnc2nc(CCN3CCCCCC3)[nH]c12 [Example 258]           EC50           =                  844
 4  O/N=C(\Nc1ccc(F)c(Cl)c1)c1ccnc2nc(CCN3CC4CCCC(C4)C3)[nH]c12 [Example 276]           EC50           =                  618
 5  Cc1ccc(/C(=N/O)Nc2ccc(F)c(Cl)c2)c2[nH]cnc12 [Example 1]           EC50           =                 1220
 6  O/N=C(\Nc1ccc(F)c(Cl)c1)c1ccnc2nc(N3CC[C@H](O)C3)[nH]c12 [Example 280]           EC50           >                10000
 7  NC1(CCNc2nc3nccc(/C(=N/O)Nc4ccc(F)c(Cl)c4)c3[nH]2)CC1 [Example 242]           EC50           =                 1630
 8  CN(C)CCc1nc2nccc(/C(=N/O)Nc3cccc(Br)c3)c2[nH]1 [Example 265]           EC50           =                  501
 9  CC(CN1CCOCC1)Nc1nc2c(F)c(F)cc(/C(=N/O)Nc3ccc(F)c(Cl)c3)c2[nH]1 (centres unmarked) [Example 37]           EC50           =                  514
10  O/N=C(\Nc1ccc(F)c(Cl)c1)c1ccnc2nc(CNC3CC3)[nH]c12 [Example 119]           EC50           =                 2150
11  Nc1nc2c(F)c(F)cc(/C(=N/O)Nc3ccc(F)c(Cl)c3)c2[nH]1 [Example 13]           EC50           =                 2740
12  Nc1nc2c(F)ccc(/C(=N/O)Nc3cccc(Cl)c3)c2[nH]1 [Example 20]           EC50           =                  404
13  Cn1nccc1CNc1nc2c(F)c(F)cc(/C(=N/O)Nc3ccc(F)c(Cl)c3)c2[nH]1 [Example 299]           EC50           =                 3440
14  O/N=C(\Nc1ccc(OC(F)(F)F)cc1)c1ccnc2nc[nH]c12 [Example 66]           EC50           =                 4870
15  O/N=C(\Nc1ccc(F)c(Cl)c1)c1ccnc2nc(NCC(F)F)[nH]c12 [Example 225]           EC50           =                 2190
16  O/N=C(\Nc1ccc(F)cc1)c1ccnc2nc[nH]c12 [Example 89]           EC50           =                  943

====

- measured.on: IDO1 (Homo sapiens)
- Construct: HeLa cells were treated with a test compound in the presence of IFNγ, which induces IDO1 expression; host or cells: H1-HeLa cells, IDO1 induced with IFNγ
- procedure.summary: Cell-based (HeLa) assay for measurement of IDO1 inhibition (kynurenine levels in supernatant after IFNγ induction)
- test.conditions: HeLa cells, IFNγ-induced IDO1, kynurenine in supernatant, 48 hour incubation; geometric mean of a minimum of four determinations
Catalogue of log10(EC50) readings, one per entry.
assay.readout: log10(EC50) (log10 of the value in nM)

                                    molecule  assay_readout  experimental_result
 0  CN(C)CC(C)(C)CNc1nc2c(F)c(F)cc(/C(=N/O)Nc3ccc(F)c(Cl)c3)c2[nH]1    log10(EC50)                 2.64
 1  ON=C(Nc1ccc(F)c(Cl)c1)c1cc(F)c(F)c2nc(NCc3ncc[nH]3)[nH]c12    log10(EC50)                 3.58
 2  O/N=C(\Nc1ccc(F)c(Cl)c1)c1cc(F)c(F)c2nc(NC3COCCC3N3CCCC3)[nH]c12 (stereo not shown)    log10(EC50)                 3.01
 3  CN(CCc1nc2nccc(/C(=N/O)Nc3ccc(F)c(Cl)c3)c2[nH]1)C1CCCCC1    log10(EC50)                 3.25
 4  CN1CCC[C@@H](Nc2nc3c(F)c(F)cc(/C(=N/O)Nc4cccc(Cl)c4)c3[nH]2)C1    log10(EC50)                 2.29
 5  CN(CCNc1nc2c(F)c(F)cc(/C(=N/O)Nc3ccc(F)c(Cl)c3)c2[nH]1)CC1CCOCC1    log10(EC50)                 2.52
 6  O/N=C(\Nc1ccc(F)c(Cl)c1)c1cc(F)c(F)c2nc(NCCCN3CCOCC3)[nH]c12    log10(EC50)                 2.95
 7  CN1CC(N)[C@H](Nc2nc3c(F)c(F)cc(/C(=N/O)Nc4ccc(F)c(Cl)c4)c3[nH]2)C1 (stereo partly shown)    log10(EC50)                 3.26
 8  Cn1nccc1CNc1nc2nccc(/C(=N/O)Nc3ccc(F)c(Cl)c3)c2[nH]1    log10(EC50)                 3.94
 9  CCN(CC)[C@@H]1COC[C@H]1Nc1nc2c(F)c(F)cc(/C(=N/O)Nc3ccc(F)c(Cl)c3)c2[nH]1    log10(EC50)                 2.67
10  CC(CNc1nc2c(F)c(F)cc(/C(=N/O)Nc3ccc(F)c(Cl)c3)c2[nH]1)N1CCOCC1 (stereo not shown)    log10(EC50)                 2.92
11  CN(C)CCNc1nc2c(F)c(F)cc(/C(=N/O)Nc3ccc(F)c(Br)c3)c2[nH]1    log10(EC50)                 2.40
12  CC(CCNc1nc2c(F)c(F)cc(/C(=N/O)Nc3ccc(F)c(Cl)c3)c2[nH]1)N(C)C (stereo not shown)    log10(EC50)                 3.11
13  CN1CCOC(CNc2nc3nccc(/C(=N/O)Nc4ccc(F)c(Cl)c4)c3[nH]2)C1 (stereo not shown)    log10(EC50)                 3.51
14  Nc1nc2cc(F)cc(/C(=N/O)Nc3cccc(Br)c3)c2[nH]1    log10(EC50)                 2.68
15  CN(CCc1nc2nccc(/C(=N/O)Nc3ccc(F)c(Cl)c3)c2[nH]1)CC1CCCCC1    log10(EC50)                 3.17

====

- measured.on: IDO1 (Homo sapiens)
- Construct: HeLa cells were treated with a test compound in the presence of IFNγ, which induces IDO1 expression; host or cells: H1-HeLa cells, IDO1 induced with IFNγ
- procedure.summary: Cell-based (HeLa) assay for measurement of IDO1 inhibition (kynurenine levels in supernatant after IFNγ induction)
- test.conditions: HeLa cells, IFNγ-induced IDO1, kynurenine in supernatant after 48 hour incubation; geometric mean of a minimum of four determinations
Binned EC50; ranges: category 1 = under 1 µM, category 2 = from 1 µM up to 3 µM, category 3 = 3 µM and over

>>> print(df.to_string())
                                entry_smiles         cat
 0  O/N=C(\Nc1cccc(Cl)c1)c1ccnc2nc(CCN3CCCC3)[nH]c12  category 1
 1  CN(C)Cc1nc2nccc(/C(=N/O)Nc3ccc(F)c(Cl)c3)c2[nH]1  category 2
 2  CC(C)CNCc1nc2nccc(/C(=N/O)Nc3ccc(F)c(Cl)c3)c2[nH]1  category 2
 3  COc1ccccc1CNCc1nc2nccc(/C(=N/O)Nc3ccc(F)c(Cl)c3)c2[nH]1  category 2
 4  OCc1nc2c(F)c(F)cc(/C(=N/O)Nc3cccc(Cl)c3)c2[nH]1  category 2
 5  CN(CCNc1nc2nccc(/C(=N/O)Nc3ccc(F)c(Cl)c3)c2[nH]1)CC(F)F  category 2
 6  Nc1nc2c(F)ccc(/C(=N/O)Nc3ccc(F)c(Br)c3)c2[nH]1  category 1
 7  O/N=C(\Nc1ccc(F)c(Cl)c1)c1ccnc2nc(CNCc3nccs3)[nH]c12  category 3
 8  Cn1cnc2c(/C(=N/O)Nc3ccc(F)c(Cl)c3)ccnc21  category 3
 9  COCCCNCc1nc2nccc(/C(=N/O)Nc3ccc(F)c(Cl)c3)c2[nH]1  category 2
10  COCCNc1nc2nccc(C(=NO)Nc3ccc(F)c(Cl)c3)c2[nH]1  category 1
11  CN(C)CCCc1nc2c(F)c(F)cc(/C(=N/O)Nc3ccc(F)c(Cl)c3)c2[nH]1  category 3
12  CS(=O)(=O)NCCc1nc2nccc(/C(=N/O)Nc3ccc(F)c(Cl)c3)c2[nH]1  category 3
13      Cc1ccc(N/C(=N\O)c2ccnc3nc[nH]c23)cc1  category 3
14  O/N=C(\Nc1ccc(F)c(Cl)c1)c1ccnc2nc(CNCc3ncccn3)[nH]c12  category 2
15  O/N=C(\Nc1ccc(F)c(Cl)c1)c1ccnc2nc(CCN3CCOCC3)[nH]c12  category 2
16  NCc1nc2c(/C(=N/O)Nc3ccc(F)c(Cl)c3)cc(F)c(F)c2[nH]1  category 2
17  O/N=C(\Nc1ccc(F)c(Cl)c1)c1ccc(C(F)(F)F)c2nc[nH]c12  category 1
